Origin of values: ChEMBL document CHEMBL4190368

- Tested on: Plasmodium falciparum
- EXPERIMENT DESCRIPTION: Antiplasmodial activity against chloroquine and pyrimethamine resistant Plasmodium falciparum K1 assessed as reduction in [3H]-hypoxanthine incorporation incubated for 48 hrs by liquid scintillation counting method
- Assay type: functional, organism-based
// classify: if (IC50 < 6 nM) yes (1) else no (0)

- COMPOUND: "CC(C)(C)OC(=O)N(CCCCN(CCCNC(=O)C1CCC2(CC1)OOC1(O2)C2CC3CC(C2)CC1C3)C(=O)OC(C)(C)C)CCCNC(=O)C1CCC2(CC1)OOC1(O2)C2CC3CC(C2)CC1C3 (centres undefined)"
  DISCRETE LABEL: "no (0)"
- COMPOUND: "C[C@H]1[C@H](OC(=O)CCC(=O)NCCCN(CCCCCCN(CCCNC(=O)CCC(=O)O[C@@H]2O[C@@H]3O[C@@]4(C)CC[C@H]5[C@H](C)CC[C@@H]([C@H]2C)[C@@]35OO4)C(=O)OC(C)(C)C)C(=O)OC(C)(C)C)O[C@@H]2O[C@@]3(C)CC[C@H]4[C@H](C)CC[C@@H]1[C@@]24OO3"
  DISCRETE LABEL: "yes (1)"
- COMPOUND: "O=C(NCCCN(CCCCCCCN(CCCNC(=O)C1CCC2(CC1)OOC1(O2)C2CC3CC(C2)CC1C3)C(=O)C1CCC2(CC1)OOC1(O2)C2CC3CC(C2)CC1C3)C(=O)C1CCC2(CC1)OOC1(O2)C2CC3CC(C2)CC1C3)C1CCC2(CC1)OOC1(O2)C2CC3CC(C2)CC1C3 (centres undefined)"
  DISCRETE LABEL: "no (0)"
- COMPOUND: "C[C@H]1[C@H](OC(=O)CCC(=O)O)O[C@@H]2O[C@@]3(C)CC[C@H]4[C@H](C)CC[C@@H]1[C@@]24OO3 [ARTESUNATE]"
  DISCRETE LABEL: "yes (1)"
- COMPOUND: "CC(C)(C)OC(=O)N(CCCCCCCCN(CCCNC(=O)C1CCC2(CC1)OOC1(O2)C2CC3CC(C2)CC1C3)C(=O)OC(C)(C)C)CCCNC(=O)C1CCC2(CC1)OOC1(O2)C2CC3CC(C2)CC1C3 (centres undefined)"
  DISCRETE LABEL: "no (0)"
- COMPOUND: "O=C(O)C1CCC2(CC1)OOC1(O2)C2CC3CC(C2)CC1C3 (centres undefined)"
  DISCRETE LABEL: "yes (1)"
- COMPOUND: "O=C(NCCCN(CCCCN(CCCNC(=O)C1CCC2(CC1)OOC1(O2)C2CC3CC(C2)CC1C3)C(=O)C1CCC2(CC1)OOC1(O2)C2CC3CC(C2)CC1C3)C(=O)C1CCC2(CC1)OOC1(O2)C2CC3CC(C2)CC1C3)C1CCC2(CC1)OOC1(O2)C2CC3CC(C2)CC1C3 (centres undefined)"
  DISCRETE LABEL: "no (0)"
- COMPOUND: "O=C(NCCCN(CCCCCCN(CCCNC(=O)C1CCC2(CC1)OOC1(O2)C2CC3CC(C2)CC1C3)C(=O)C1CCC2(CC1)OOC1(O2)C2CC3CC(C2)CC1C3)C(=O)C1CCC2(CC1)OOC1(O2)C2CC3CC(C2)CC1C3)C1CCC2(CC1)OOC1(O2)C2CC3CC(C2)CC1C3 (centres undefined)"
  DISCRETE LABEL: "no (0)"
- COMPOUND: "C[C@H]1[C@H](OC(=O)CCC(=O)NCCCN(CCCCCCCN(CCCNC(=O)CCC(=O)O[C@@H]2O[C@@H]3O[C@@]4(C)CC[C@H]5[C@H](C)CC[C@@H]([C@H]2C)[C@@]35OO4)C(=O)OC(C)(C)C)C(=O)OC(C)(C)C)O[C@@H]2O[C@@]3(C)CC[C@H]4[C@H](C)CC[C@@H]1[C@@]24OO3"
  DISCRETE LABEL: "yes (1)"
